Target: PD-L1 His protein / PD-1 Fc protein (Homo sapiens, UniProt Q9NZQ7)
Sequence (Q9NZQ7 19-238 limits assumed): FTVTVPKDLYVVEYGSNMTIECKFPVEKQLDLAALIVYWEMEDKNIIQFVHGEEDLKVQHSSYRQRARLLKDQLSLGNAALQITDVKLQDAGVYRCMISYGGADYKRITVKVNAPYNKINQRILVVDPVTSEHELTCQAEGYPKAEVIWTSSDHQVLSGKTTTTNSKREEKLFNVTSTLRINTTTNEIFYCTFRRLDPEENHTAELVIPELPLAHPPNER
Assay: HTRF Assay (PD-1/PD-L1 interaction)
Conditions: PD-L1 His 6 nM, PD-1 Fc 6 nM
Please respond with reported IC50 for every item in the list.
Give a bare numeral; the unit nM is implied.

Please fill in: IC50 reported for COc1nc(-c2cccc(-c3cccc(-c4cnc5c(N)c(CO)sc5c4)c3Cl)c2Cl)ccc1CNC[C@@H]1CCC(=O)N1 [Example 217] = 3.5

Please fill in: IC50 reported for COc1nc(-c2cccc(-c3cccc(-c4cc5c(=O)n(C)c(CN6CC7(CCC(=O)N7)C6)nn5c4)c3Cl)c2Cl)ccc1CNC[C@@H]1CCC(=O)N1 [Example 448] = 6.8

Please fill in: IC50 reported for COc1nc(-c2cccc(-c3cccc(-c4cc5c(=O)n(C)c(CNCC(C)(C)O)nn5c4)c3Cl)c2Cl)ccc1CNC[C@@H]1CCC(=O)N1 [Example 405] = 84

Please fill in: IC50 reported for COc1nc(-c2cccc(-c3cccc(-c4ccn5c(=O)c(C)c(CN[C@H]6C[C@](C)(O)C6)nc5c4)c3Cl)c2Cl)ccc1CNC[C@@H]1CCC(=O)N1 [Example 373] = 33

Please fill in: IC50 reported for COc1nc(-c2cccc(-c3cccc(-c4ccn5c(=O)c(CN6CC7(CC(O)C7)C6)cnc5c4)c3Cl)c2Cl)ccc1CNC[C@@H]1CCC(=O)N1 [Example 346] = 1300

Please fill in: IC50 reported for COc1nc(-c2cccc(-c3cccc(-c4ccc5nc(CNC[C@@H]6CCC(=O)N6)n(C)c5n4)c3Cl)c2Cl)ccc1CNC[C@@H]1CCC(=O)N1 [Example 314] = 3.9

Please fill in: IC50 reported for COc1c(CNC[C@@H]2CCC(=O)N2)cc(Cl)c2nc(-c3cccc(-c4cccc(-c5ccn6c(=O)c(CNC[C@@H]7CCC(=O)N7)cnc6c5)c4Cl)c3Cl)ccc12 [Example 203] = 150

Please fill in: IC50 reported for COc1nc(-c2cccc(-c3cccc(-c4ccn5c(=O)c(CNC[C@H](C)O)cnc5c4)c3Cl)c2Cl)ccc1CNC[C@@H](C)O [Example 196] = 2.8

Please fill in: IC50 reported for COc1nc(-c2cccc(-c3cccc(-c4ccn5c(=O)cc(CN6C[C@@H](O)CC6=O)nc5c4)c3Cl)c2Cl)ccc1CNC[C@@H]1CCC(=O)N1 [Example 342] = 0.1

Please fill in: IC50 reported for COc1nc(-c2cccc(-c3cccc(-c4ncc5c(CNC[C@@H]6CCC(=O)N6)cn(C)c5n4)c3Cl)c2Cl)ccc1CNC[C@@H]1CCC(=O)N1 [Example 401] = 0.1

Please fill in: IC50 reported for COc1nc(-c2cccc(-c3cccc(-c4ccn5c(=O)c(CN6CC[C@H](C(=O)O)C6)cnc5c4)c3Cl)c2Cl)ccc1CN1CC(CO)C1 [Example 83] = 0.4

Please fill in: IC50 reported for Cc1c(COc2cc(OCc3cncc(C#N)c3)c(CNCCO)cc2Cl)cccc1-c1cccc(-n2ccc(CNCCO)cc2=O)c1C [Example 23] = 33

###

Biological target: PD-L1 His protein / PD-1 Fc protein (Homo sapiens)
Experiment: HTRF Assay (PD-1/PD-L1 interaction)
Conditions: PD-L1 His 6 nM, PD-1 Fc 6 nM
Please respond with reported IC50 for every item in the list.
Please answer using a numeric value trailed by its unit.

Please fill in: IC50 reported for COc1ccc(CNCc2cnc3cc(-c4cccc(-c5cccc(-c6ccc(CNC[C@@H]7CCC(=O)N7)c(OC)n6)c5Cl)c4Cl)ccn3c2=O)c(OC)c1 = 1.4 nM

Please fill in: IC50 reported for COC(=O)C12CCC(CC1)N(Cc1ccc(-c3cccc(-c4cccc(-c5ccn6c(=O)c(CNC[C@@H]7CCC(=O)N7)cnc6c5)c4Cl)c3Cl)nc1OC)C2 = 1 nM

Please fill in: IC50 reported for COc1nc(-c2cccc(-c3cccc(-c4ccn5c(=O)c(CNCCN6CCNC(=O)C6)cnc5c4)c3Cl)c2Cl)ccc1CNC[C@@H]1CCC(=O)N1 = 0.1 nM
